Listed here: items and their measured GI50.
Test system: OVCAR3 cells
Experimental Protocol: MTT proliferation assay, OVCAR3
Format: cell-based
Settings: 5 days compound exposure, 1:3 serial dilution starting at 10 μM
*1 amine or outer side, *2 acyl side, *3 side chain or, on linkers, in order; H or OH if unused. Where a SMILES comes first, the peptide text is derived from it. Bridges are numbered along the chain shown (N, C = ends). [ ]: non-standard residue; d: D form. The star is where a group is joined. NMehhhLys(Me) = CN([C@@H](CCCCCCCN(C)[*:3])C(=O)[*:2])[*:1]; X64 = CN([C@@H](Cc1cc(Cl)ccc1OC1(C)CC1)C(=O)[*:2])[*:1]; cBuCO(3,3-F2-1-CF3) = O=C(C1(C(F)(F)F)CC(F)(F)C1)*; Pro(trans-4-F) = O=C(O)[C@@H]1C[C@@H](F)CN1; Gly(cPr) = N[C@H](C(=O)O)C1CC1
Only the number, expressed in µM, is required.

stdin: Using the record for `CCN(C(=O)[C@@H](NC(=O)[C@@H]1C[C@@H](F)CN1C(=O)C1(C(F)(F)F)CC(F)(F)C1)C1CC1)[C@H]1CCCCCCCN(C)C(=O)[C@H](Cc2cc(Cl)ccc2-c2ccc(N3CCN(C)CC3)cc2)N(C)C(=O)[C@H](CC(C)C)NC1=O` , report its GI50.
stdout: 0.02

stdin: Subsequent entry: CC(C)C[C@@H]1NC(=O)[C@@H](N(C)C(=O)[C@@H](NC(=O)[C@@H]2C[C@@H](F)CN2C(=O)C2(C(F)(F)F)CC(F)(F)C2)C2CC2)CCCCCCCN(C)C(=O)[C@H](Cc2cc(Cl)ccc2OC2(C)CC2)N(C)C1=O [Example 259] ({cBuCO(3,3-F2-1-CF3)}-[Pro(trans-4-F)][Gly(cPr)][NMehhhLys(Me)]L[X64]; lactam 3-C)
stdout: 0.11

###

Test system: OVCAR3 cells
Experimental Protocol: MTT proliferation assay, OVCAR3;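 also: compound given as an 8- or 10-point series, one day after plating, with exposure covering roughly 3-4 cell doublings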
Format: cell-based
Settings: 5 days compound exposure, 1:3 serial dilution starting at 10 μM
*1 amine or outer side, *2 acyl side, *3 side chain or, on linkers, in order; H or OH if unused. Where a SMILES comes first, the peptide text is derived from it. Bridges are numbered along the chain shown (N, C = ends). [ ]: non-standard residue; d: D form. The star is where a group is joined. X198 = COC[C@H]1COCCN1c1ccc(-c2ccc(Cl)cc2C[C@@H](C(=O)[*:2])N(C)[*:1])cc1; X98 = CN1CC2(C1)OCc1cc(-c3ccc(Cl)cc3C[C@@H](C(=O)[*:2])N(C)[*:1])ccc12; X80 = CN1CC=C(c2ccc(-c3ccc(Cl)cc3C[C@@H](C(=O)[*:2])N(C)[*:1])cc2)CC1; X11 = CN1CCN(c2ccc(-c3ccc(Cl)cc3C[C@@H](C(=O)[*:2])N(C)[*:1])cc2)CC1; X136 = CN1CCOc2cc(-c3ccc(Cl)cc3C[C@@H](C(=O)[*:2])N(C)[*:1])ccc21; X151 = CN([C@@H](Cc1cc(Cl)ccc1-c1cnn(C2CCC2)c1)C(=O)[*:2])[*:1]; NMehhhLys(Me) = CN([C@@H](CCCCCCCN(C)[*:3])C(=O)[*:2])[*:1]; Spiro(3.3)heptane2CO(2-CF3) = O=C(C1(C(F)(F)F)CC2(CCC2)C1)*; X15 = CN([C@@H](Cc1cc(Cl)ccc1-c1cnn2c1CCC2)C(=O)[*:2])[*:1]; X206 = CN([C@@H](Cc1cc(Cl)cnc1Cc1cnn(C)c1)C(=O)[*:2])[*:1]; X22 = CN([C@@H](Cc1cc(Cl)ccc1-c1cnn(C)c1)C(=O)[*:2])[*:1]; NMe(hhhLys) = CN([C@@H](CCCCCCCN[*:3])C(=O)[*:2])[*:1]; Oxane2carbonyl(2R-CF3) = O=C([C@@]1(C(F)(F)F)CCCCO1)*; cBuCO(3,3-F2-1-CF3) = O=C(C1(C(F)(F)F)CC(F)(F)C1)*; Pro(trans-4-F) = O=C(O)[C@@H]1C[C@@H](F)CN1; Gly(cPr) = N[C@H](C(=O)O)C1CC1
Listed here: items and their measured GI50.
Only the number, expressed in nM, is required.

| Compound | Test Target | Unit Label | GI50 |
| --- | --- | --- | --- |
| CC(=O)N1CC=C(c2ccc(Cl)cc2C[C@H]2C(=O)N(C)CCCCCC[C@H](N(C)C(=O)[C@@H](NC(=O)[C@@H]3C[C@@H](F)CN3C(=O)C3(C(F)(F)F)CC(F)(F)C3)C3CC3)C(=O)N[C@@H](CC(C)C)C(=O)N2C)CC1 | OVCAR3 cells | nM | 170 |
| CC(C)C[C@@H]1NC(=O)[C@@H](N(C)C(=O)[C@@H](NC(=O)[C@@H]2C[C@@H](F)CN2C(=O)C2(C(F)(F)F)CC(F)(F)C2)C2CC2)CCCCCCCNC(=O)[C@H](Cc2cc(Cl)ccc2-c2ccc3c(c2)COC32CN(C)C2)N(C)C1=O [Example 395] ({cBuCO(3,3-F2-1-CF3)}-[Pro(trans-4-F)][Gly(cPr)][NMe(hhhLys)]L[X98]; lactam 3-C) | OVCAR3 cells | nM | 10 |
| CC(C)C[C@@H]1NC(=O)[C@@H](N(C)C(=O)[C@@H](NC(=O)[C@@H]2C[C@@H](F)CN2C(=O)[C@@]2(C(F)(F)F)CCCCO2)C2CC2)CCCCCCCN(C)C(=O)[C@H](Cc2cc(Cl)cnc2Cc2cnn(C)c2)N(C)C1=O [Example 332] ({Oxane2carbonyl(2R-CF3)}-[Pro(trans-4-F)][Gly(cPr)][NMehhhLys(Me)]L[X206]; lactam 3-C) | OVCAR3 cells | nM | 10 |
| CC(C)C[C@@H]1NC(=O)[C@@H](N(C)C(=O)[C@@H](NC(=O)[C@@H]2CCCN2C(=O)C2(C(F)(F)F)CC(F)(F)C2)C2CC2)CCCCCCCN(C)C(=O)[C@H](Cc2cc(Cl)ccc2-c2cnn(C)c2)N(C)C1=O [Example 77] ({cBuCO(3,3-F2-1-CF3)}-P[Gly(cPr)][NMehhhLys(Me)]L[X22]; lactam 3-C) | OVCAR3 cells | nM | 70 |
| CC(C)C[C@@H]1NC(=O)[C@@H](N(C)C(=O)[C@@H](NC(=O)[C@@H]2C[C@@H](F)CN2C(=O)C2(C(F)(F)F)CC(F)(F)C2)C2CC2)CCCCCCCN(C)C(=O)[C@H](Cc2cc(Cl)ccc2-c2ccc(C3=CCN(C)CC3)cc2)N(C)C1=O [Example 351] ({cBuCO(3,3-F2-1-CF3)}-[Pro(trans-4-F)][Gly(cPr)][NMehhhLys(Me)]L[X80]; lactam 3-C) | OVCAR3 cells | nM | 10 |

stdin: Provide the documented GI50 with OVCAR3 cells as the system for CC(C)C[C@@H]1NC(=O)[C@@H](N(C)C(=O)[C@@H](NC(=O)[C@@H]2C[C@@H](F)CN2C(=O)C2(C(F)(F)F)CC3(CCC3)C2)C2CC2)CCCCCCCN(C)C(=O)[C@H](Cc2cc(Cl)ccc2-c2cnn(C)c2)N(C)C1=O [Example 203] ({Spiro(3.3)heptane2CO(2-CF3)}-[Pro(trans-4-F)][Gly(cPr)][NMehhhLys(Me)]L[X22]; lactam 3-C)
stdout: 50

stdin: Subsequent entry: COC[C@H]1COCCN1c1ccc(-c2ccc(Cl)cc2C[C@H]2C(=O)N(C)CCCCCCC[C@H](N(C)C(=O)[C@@H](NC(=O)[C@@H]3C[C@@H](F)CN3C(=O)C3(C(F)(F)F)CC(F)(F)C3)C3CC3)C(=O)N[C@@H](CC(C)C)C(=O)N2C)cc1 [Example 373] ({cBuCO(3,3-F2-1-CF3)}-[Pro(trans-4-F)][Gly(cPr)][NMehhhLys(Me)]L[X198]; lactam 3-C)
stdout: 10

stdin: Subsequent entry: CC(C)C[C@@H]1NC(=O)[C@@H](N(C)C(=O)[C@@H](NC(=O)[C@@H]2C[C@@H](F)CN2C(=O)C2(C(F)(F)F)CC(F)(F)C2)C2CC2)CCCCCCCN(C)C(=O)[C@H](Cc2cc(Cl)ccc2-c2cnn(C3CCC3)c2)N(C)C1=O [Example 112] ({cBuCO(3,3-F2-1-CF3)}-[Pro(trans-4-F)][Gly(cPr)][NMehhhLys(Me)]L[X151]; lactam 3-C)
stdout: 10

stdin: Subsequent entry: CC(C)C[C@@H]1NC(=O)[C@@H](N(C)C(=O)[C@@H](NC(=O)[C@@H]2C[C@@H](F)CN2C(=O)C2(C(F)(F)F)CC(F)(F)C2)C2CC2)CCCCCCCN(C)C(=O)[C@H](Cc2cc(Cl)ccc2-c2ccc(N3CCN(C)CC3)cc2)N(C)C1=O [Example 336] ({cBuCO(3,3-F2-1-CF3)}-[Pro(trans-4-F)][Gly(cPr)][NMehhhLys(Me)]L[X11]; lactam 3-C)
stdout: 10

stdin: Subsequent entry: CC(C)C[C@@H]1NC(=O)[C@@H](N(C)C(=O)[C@@H](NC(=O)[C@@H]2C[C@@H](F)CN2C(=O)C2(C(F)(F)F)CC(F)(F)C2)C2CC2)CCCCCCCN(C)C(=O)[C@H](Cc2cc(Cl)ccc2-c2cnn3c2CCC3)N(C)C1=O [Example 190] ({cBuCO(3,3-F2-1-CF3)}-[Pro(trans-4-F)][Gly(cPr)][NMehhhLys(Me)]L[X15]; lactam 3-C)
stdout: 10

stdin: Subsequent entry: CC(C)C[C@@H]1NC(=O)[C@@H](N(C)C(=O)[C@@H](NC(=O)[C@@H]2C[C@@H](F)CN2C(=O)C2(C(F)(F)F)CC(F)(F)C2)C2CC2)CCCCCCCN(C)C(=O)[C@H](Cc2cc(Cl)ccc2-c2ccc3c(c2)OCCN3C)N(C)C1=O [Example 342] ({cBuCO(3,3-F2-1-CF3)}-[Pro(trans-4-F)][Gly(cPr)][NMehhhLys(Me)]L[X136]; lactam 3-C)
stdout: 10
